Data credit: patent US8217140B2

This listing pairs molecules with measured AUC below T.
System: VWF
assay.notes: Pharmacodynamic profile: ristocetin cofactor activity assay (% RICO) after i.v. administration
Type: in vivo, Cynomolgus monkey
experimental.parameters: threshold 20% RICO; i.v. bolus 2 mg/kg, male Cynomolgus monkey, mean n = 3
measured.parameter: AUC below T (% RICO * h)

| molecule | test.result |
| --- | --- |
| 12A2_sv1-AAA-12A2_sv1-9GS-59C2-9GS-59C2 (protein) DVQLVESGGGLVQPGGSLRLSCAASGRTFSYNPMGWFRQAPGKGRELVAAISRTGGSTYYPESVEGRFTISRDNAKRTVYLQMNSLRAEDTAVYYCAAAGVRAEQGRVRTLPSEYTFWGQGTQVTVSSAAAEVQLVESGGGLVQPGGSLRLSCAASGRTFSYNPMGWFRQAPGKGRELVAAISRTGGSTYYPESVEGRFTISRDNAKRTVYLQMNSLRAEDTAVYYCAAAGVRAEQGRVRTLPSEYTFWGQGTQVTVSSGGGGSGGGSRDWDFDVFGGGTPVGGGGGGSGGGSRDWDFDVFGGGTPVGG | 1709 |
| 12A2_sv1-AAA-12A2_sv1-9GS-59C2 (protein) DVQLVESGGGLVQPGGSLRLSCAASGRTFSYNPMGWFRQAPGKGRELVAAISRTGGSTYYPESVEGRFTISRDNAKRTVYLQMNSLRAEDTAVYYCAAAGVRAEQGRVRTLPSEYTFWGQGTQVTVSSAAAEVQLVESGGGLVQPGGSLRLSCAASGRTFSYNPMGWFRQAPGKGRELVAAISRTGGSTYYPESVEGRFTISRDNAKRTVYLQMNSLRAEDTAVYYCAAAGVRAEQGRVRTLPSEYTFWGQGTQVTVSSGGGGSGGGSRDWDFDVFGGGTPVGG | 781 |
| 12A2_sv1-AAA-12A2_sv1 (protein) DVQLVESGGGLVQPGGSLRLSCAASGRTFSYNPMGWFRQAPGKGRELVAAISRTGGSTYYPESVEGRFTISRDNAKRTVYLQMNSLRAEDTAVYYCAAAGVRAEQGRVRTLPSEYTFWGQGTQVTVSSAAAEVQLVESGGGLVQPGGSLRLSCAASGRTFSYNPMGWFRQAPGKGRELVAAISRTGGSTYYPESVEGRFTISRDNAKRTVYLQMNSLRAEDTAVYYCAAAGVRAEQGRVRTLPSEYTFWGQGTQVTVSS | 6.60 |
| 12A2_sv1-9GS-59C2-9GS-12A2_sv1 (protein) DVQLVESGGGLVQPGGSLRLSCAASGRTFSYNPMGWFRQAPGKGRELVAAISRTGGSTYYPESVEGRFTISRDNAKRTVYLQMNSLRAEDTAVYYCAAAGVRAEQGRVRTLPSEYTFWGQGTQVTVSSGGGGSGGGSRDWDFDVFGGGTPVGGGGGGSGGGSEVQLVESGGGLVQPGGSLRLSCAASGRTFSYNPMGWFRQAPGKGRELVAAISRTGGSTYYPESVEGRFTISRDNAKRTVYLQMNSLRAEDTAVYYCAAAGVRAEQGRVRTLPSEYTFWGQGTQVTVSS | 379 |
